Reported pIC50, Carbonic anhydrase 2 (Homo sapiens).
pIC50: −log10 of the molar value.
ENDPOINT_LABEL: pIC50

// known answers, use as guide
CCN(CC)C1CCS(=O)(=O)c2sc(S(N)(=O)=O)cc21.Cl (stereo not given): 7.91
CCCCNC1CCS(=O)(=O)c2sc(S(N)(=O)=O)cc21.Cl (stereo not given): 8.64
CNC1CCS(=O)(=O)c2sc(S(N)(=O)=O)cc21.Cl (stereo not given): 8.60

P: Cl.NC1CCS(=O)(=O)c2sc(S(N)(=O)=O)cc21 (stereo not given)
Q: CCCNC1CCS(=O)(=O)c2sc(S(N)(=O)=O)cc21.Cl (stereo not given)
Which value of pIC50 is numerically greater: that of P or that of Q ? Bench note: the answer is the label of the chosen record. Q
